Assay: Terminal half life in C57BL/6J mouse at 1 mg/kg, iv administered as single dose
Type: ADME, organism-based
Conditions: in vivo, read-out: beta t1/2 (converted)
observable: half-life
Number first, unit second.

Summary for this compound, Cc1cc(N2C[C@H]3CC[C@@H](C2)[C@@H]3Nc2nc3n(n2)CCCC[C@H]3c2ccc(F)c(F)c2F)ncn1 : half-life is 3.4 h

* * *

Assay: Clearance in human hepatocytes assessed per million cells
Format: ADME, cell-based, Hepatocyte
Conditions: read-out: CLH
Doc: threshold 3 µL/min/1e6 cells (exclusive). Items with hepatocyte CLint beneath it return criterion met; others return criterion not met.

## Task Lab note: confirm whether the reported hepatocyte CLint for this compound is below 3 µL/min/1e6 cells, equality not counting. compound: Cc1cc(N2C[C@H]3CC[C@@H](C2)[C@@H]3Nc2nc3n(n2)CCCCC3c2ccc(F)c(F)c2F)cnn1 (mixture of isomers)
## Result criterion met

## Task Given Cc1cc(N2C[C@H]3CC[C@@H](C2)[C@@H]3Nc2nc3n(n2)CCCN3c2cc(F)cc(F)c2)ncn1 , is recorded hepatocyte CLint strictly lower than 3 µL/min/1e6 cells?
## Result criterion met

## Task Is hepatocyte CLint strictly under 3 µL/min/1e6 cells for the entry COc1cc(N2C[C@H]3CC[C@@H](C2)[C@@H]3Nc2nc3n(n2)CCCN3c2ccc(F)c(F)c2)ccn1 ?
## Result criterion not met

## Task Is hepatocyte CLint strictly under 3 µL/min/1e6 cells for the entry Cc1cc(N2C[C@H]3CC[C@@H](C2)[C@@H]3Nc2nc3n(n2)CCCN3c2ccc(F)c(F)c2)ncn1 ?
## Result criterion met

## Task Report whether reported hepatocyte CLint is lower than 3 µL/min/1e6 cells (strictly) for Cc1cc(N2C[C@H]3CC[C@@H](C2)[C@@H]3Nc2nc3n(n2)CCCN3c2ccc(F)c(F)c2)cnn1
## Result criterion met

## Task Is 3 µL/min/1e6 cells strictly greater than the compound's reported hepatocyte CLint? compound: COc1cc(N2C[C@H]3CC[C@@H](C2)[C@@H]3Nc2nc3n(n2)CCCCC3c2ccc(F)c(F)c2F)ccn1 (mixture of isomers)
## Result criterion not met

## Task Given the entry Fc1ccc(C2CCCCn3nc(N[C@@H]4[C@@H]5CC[C@H]4CN(c4cnnc(Cl)c4)C5)nc32)c(F)c1F (mixture of isomers) , would its reported hepatocyte CLint be below 3 µL/min/1e6 cells?
## Result criterion not met

* * *

Assay: Clearance in Wistar rat at 1 mg/kg, iv administered as single dose
Assay type: ADME, organism-based
Details: in vivo
observable: clearance (mL/min/kg)
Please respond with the number in mL/min/kg and leave the unit unwritten.

clearance for Cc1cc(N2C[C@H]3CC[C@@H](C2)[C@@H]3Nc2nc3n(n2)CCCN3c2cc(F)cc(F)c2)ncn1 is 3.5

* * *

Biological target: Gamma-secretase
Assay: Modulation of gamma secretase in human H4 cells overexpressing human APP695 harboring K595N/M596L Swedish double mutant assessed as reduction in total amyloid beta (1 to 42 residues) production measured after 24 hrs by AlphaLISA assay
Assay type: cell-based
observable: IC50 (nM)
Unit nM implied. Number only.

Fc1ccc(C2CCCn3nc(N[C@@H]4[C@@H]5CC[C@H]4CN(c4ccnc(C(F)(F)F)c4)C5)nc32)c(F)c1F (mixture of isomers); 44
Cc1cc(N2C[C@H]3CC[C@@H](C2)[C@@H]3Nc2nc3n(n2)CCCCC3c2ccc(F)c(F)c2F)cnn1 (mixture of isomers); 30
COc1cc(N2C[C@H]3CC[C@@H](C2)[C@@H]3Nc2nc3n(n2)CCCCC3c2ccc(F)c(F)c2F)ccn1 (mixture of isomers); 14
Cc1cc(N2C[C@H]3CC[C@@H](C2)[C@@H]3Nc2nc3n(n2)CCCC3c2ccc(C(F)(F)F)cc2)ncn1 (mixture of isomers); 25
Fc1ccc(N2CCCn3nc(N[C@@H]4[C@@H]5CC[C@H]4CN(c4ccnc(C(F)(F)F)c4)C5)nc32)cc1F; 15

# IC50 (compound: Cc1cc(N2C[C@H]3CC[C@@H](C2)[C@@H]3Nc2nc3n(n2)CCN3c2ccc(C(F)(F)F)cc2)ncn1 ) is 26

The compound listed as Cc1cc(N2C[C@H]3CC[C@@H](C2)[C@@H]3Nc2nc3n(n2)CCCCC3c2ccc(C(F)(F)F)cc2)ncn1 (mixture of isomers) shows IC50 equal to 14

For reference, reported IC50 for COc1cc(N2C[C@H]3CC[C@@H](C2)[C@@H]3Nc2nc3n(n2)CCCCC3c2ccc(F)c(F)c2F)ncn1 (mixture of isomers) stands at 29

Lab note: measured IC50 of Cc1cc(N2C[C@H]3CC[C@@H](C2)[C@@H]3Nc2nc3n(n2)CCCCC3c2ccc(F)c(F)c2F)on1 (mixture of isomers) was 39

Memo: Cc1cc(N2C[C@H]3CC[C@@H](C2)[C@@H]3Nc2nc3n(n2)CCCCC3c2ccc(F)c(F)c2)ncn1 (mixture of isomers) , reported IC50: 23

// Fc1ccc(N2CCCCn3nc(N[C@@H]4[C@@H]5CC[C@H]4CN(c4ccnc(C(F)(F)F)c4)C5)nc32)cc1F : IC50 value = 34

The compound identified as Fc1ccc(C2CCn3nc(N[C@@H]4[C@@H]5CC[C@H]4CN(c4ccnc(C(F)(F)F)c4)C5)nc32)c(F)c1F (mixture of isomers) registered its IC50 at 126

The measured IC50 associated with Fc1ccc(C2CCCn3nc(N[C@@H]4[C@@H]5CC[C@H]4CN(c4cc(Cl)ncn4)C5)nc32)c(F)c1F (mixture of isomers) reads 30

IC50 reading for Fc1ccc(C2CCCCn3nc(N[C@@H]4[C@@H]5CC[C@H]4CN(c4cnnc(Cl)c4)C5)nc32)c(F)c1F (mixture of isomers) : 14

# IC50 of Fc1ccc(C2CCCCn3nc(N[C@@H]4[C@@H]5CC[C@H]4CN(c4cc(Cl)ncn4)C5)nc32)c(F)c1F (mixture of isomers) = 14
